Tested on: HCT-15
TEST_NAME: Cytotoxicity against human HCT15 cells after 72 hrs by sulforhodamine B assay
Type: functional, cell-based
TEST_PARAMETERS: HCT-15, 72 h
pIC50: −log10 of the molar value.

# CHEMICAL_SMILES, pIC50
measured = [
    ("CC(=O)OC[C@H]1O[C@@H](OC(=O)[C@H]2CC[C@@]34COC(=O)[C@@]3(O)CC=C[C@@]4(O)[C@@]2(C)CC(=O)c2ccoc2)[C@H](O)[C@@H](O)[C@@H]1O", "< 4.38"),
]

###

Test system: MDA-MB-231
TEST_NAME: Cytotoxicity against human MDA-MB-231 cells after 72 hrs by sulforhodamine B assay
Format: functional, cell-based
TEST_PARAMETERS: MDA-MB-231, 72 h
pIC50: −log10 of the molar value.

# CHEMICAL_SMILES, pIC50
measured = [
    ("CC(=O)OC[C@H]1O[C@@H](OC(=O)[C@H]2CC[C@@]34COC(=O)[C@@]3(O)CC=C[C@@]4(O)[C@@]2(C)CC(=O)c2ccoc2)[C@H](O)[C@@H](O)[C@@H]1O", "< 4.38"),
]
